- Test method notes: Water solubility test (turbid appearance of 10 mg peptide in 10 ml de-mineralised water)
- Test conditions: water at 20 C and pH 6.5
Ends that are not written are not given here.
Outcome measure: Peptide category (substantially water-insoluble or soluble)

{"Substance": "EAEWEY [EAEWEY, reference compound]", "Observed result": "Soluble peptides"}
{"Substance": "GGGGGGGG [GGGGGGGG]", "Observed result": "Insoluble peptides"}
{"Substance": "YYYYYY [YYYYYY]", "Observed result": "Insoluble peptides"}
{"Substance": "VEWEME [VEWEME, reference compound]", "Observed result": "Soluble peptides"}
{"Substance": "GSGGSG [GSGGSG]", "Observed result": "Soluble peptides"}

Turning now to a further substance:
[ask] So what does the record say about Peptide category (substantially water-insoluble or soluble) for DDDDDD [DDDDDD, reference compound] ?
[reply] Soluble peptides

Cited source for all entries: patent EP1836906B1
